Target: Voltage-gated potassium channel, KQT; KCNQ2(Kv7.2)/KCNQ3(Kv7.3) (Homo sapiens) (UniProt O43526+O43525)
Test: Modulation of human KCNQ2/3 channel expressed in CHO-K1 cells by fluorescence assay relative to retigabine
Format: cell-based
Design: concentration or dose not given beside the values
Give measured Activity for each item. Keep answers brief.
Note: state the figure and append the unit.

Please review the following examples before continuing.
CCSc1nc(N2CCOCC2)cc(C)c1C(=O)NCc1ccc(F)cc1 = 158%
CCSc1nc(N2CCOCC2)cc(C)c1C(=O)NCc1cccc(F)c1 = 171%
CCSc1nc(N2CCOCC2)cc(C)c1C(=O)NCc1cc(C)cc(F)c1 = 160%
CCCc1nc(N2CCOCC2)cc(C)c1C(=O)NCc1cccc(F)c1 = 176%
Cc1cc(N2CCOCC2)nc(C2CC2)c1C(=O)NC[C@@H]1CCCC[C@H]1O = 245%

Batch request: Activity for each of the following compounds.
1. CCSc1nc(N2CCOCC2)cc(C)c1C(=O)NCCCC(C)C
2. COc1nc(N2CCOCC2)cc(C)c1C(=O)NCc1cccc(F)c1
3. CCSc1nc(N2CCOCC2)cc(C)c1C(=O)NCCCC(C)(C)C

Ans:
215%
155%
244%

====

Biological target: Voltage-gated potassium channel, KQT; KCNQ2(Kv7.2)/KCNQ3(Kv7.3) (Homo sapiens) (UniProt O43526+O43525)
Assay: Modulation of human KCNQ2/3 channel expressed in CHO-K1 cells by fluorescence assay
Type: cell-based
In plain terms, low Activity, meaning strictly below 200 nM, gives 1 (yes), and everything else gives 0 (no).

Check out these entries, answers already filled in.
CCSc1nc(N2CCOCC2)cc(C)c1C(=O)NCc1ccc(F)cc1 = 1 (yes)
COc1nc(N2CCOCC2)cc(C)c1C(=O)NCc1cccc(F)c1 = 0 (no)
CCCc1nc(N2CCOCC2)cc(C)c1C(=O)NCc1cccc(F)c1 = 1 (yes)
CCSc1nc(N2CCOCC2)cc(C)c1C(=O)NCc1cc(C)cc(F)c1 = 1 (yes)
CCSc1nc(N2CCOCC2)cc(C)c1C(=O)NCc1cccc(F)c1 = 1 (yes)
Cc1cc(N2CCOCC2)nc(C2CC2)c1C(=O)NC[C@@H]1CCCC[C@H]1O = 0 (no)

Now turn to the next compound.
Q: State whether 200 nM exceeds Activity recorded for CCSc1nc(N2CCOCC2)cc(C)c1C(=O)NCCCC(C)(C)C .
Ans: 1 (yes)
